Reference source: paper doi:10.1101/2020.09.17.301234v1

target: OBP1a (bnOBP isoform 1a; also printed 1OBPa); assay: fluorescence titration; settings: 50 mM Tris-HCl, 300 mM NaCl, pH 8.0; 2 µM protein; fluorescent probe; read-out: dissociation constant
outcomeMeasure: Kd (nM)
Give a bare numeral; the unit nM is implied.

Provide measured Kd value, entry: c1ccc(Nc2cccc3ccccc23)cc1
700
